Test system: LB831-BLC (Bladder Carcinoma)
Test: Bliss excess, mean over the matrix (fraction); higher = more synergy;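 note: after 72 h of two-drug dosing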
RECORDED_ENDPOINT: Bliss excess
Please give the numeric answer without any surrounding text.

Quick one: give measured Bliss excess for CCN(CCO)CCCOc1ccc2c(Nc3cc(CC(=O)Nc4cccc(F)c4)[nH]n3)ncnc2c1 [AZD2811] + C[C@@H]1COCCN1C2=NC(=NC(=C2)C3(CC3)[S@](=N)(=O)C)C4=C5C=CNC5=NC=C4 [AZD6738] (first compound max 1 µM, 7x7, partner max 10 µM)
-0.0744

Report Bliss excess for NC1(C(=O)N[C@@H](CCO)c2ccc(Cl)cc2)CCN(c2ncnc3[nH]ccc23)CC1 [Capivasertib] + Cn1cnc2c(F)c(Nc3ccc(Br)cc3Cl)c(C(=O)NOCCO)cc21 [Selumetinib] (first compound max 10 µM, 7x7, partner max 10 µM)
-0.133

Return value of Bliss excess for input CCN(CCO)CCCOc1ccc2c(Nc3cc(CC(=O)Nc4cccc(F)c4)[nH]n3)ncnc2c1 [AZD2811] + C=CCn1c(=O)c2cnc(Nc3ccc(N4CCN(C)CC4)cc3)nc2n1-c1cccc(C(C)(C)O)n1 [AZD1775] (first compound max 1 µM, partner max 1 µM) , no commentary.
0.005

Provide Bliss excess value for the following molecule: C=CCn1c(=O)c2cnc(Nc3ccc(N4CCN(C)CC4)cc3)nc2n1-c1cccc(C(C)(C)O)n1 [AZD1775] + C[C@@H]1COCCN1C2=NC(=NC(=C2)C3(CC3)[S@](=N)(=O)C)C4=C5C=CNC5=NC=C4 [AZD6738] (first compound max 1 µM, partner max 10 µM)
0.0042

---

Test system: HO-1-N-1 (Oral Cavity Carcinoma)
Assay: Bliss excess, mean over the matrix (fraction); higher = more synergy
RECORDED_ENDPOINT: Bliss excess
The answer should be a number; do not append a unit.

Name the recorded Bliss excess of the item CC1(C)CCC(CN2CCN(c3ccc(C(=O)NS(=O)(=O)c4ccc(NCC5CCOCC5)c([N+](=O)[O-])c4)c(Oc4cnc5[nH]ccc5c4)c3)CC2)=C(c2ccc(Cl)cc2)C1 [Venetoclax] + COc1cc(Nc2ncc3c(n2)-c2ccc(Cl)cc2C(c2c(F)cccc2OC)=NC3)ccc1C(=O)O [Alisertib] (first compound max 1 µM, 7x7, partner max 10 µM) in your answer.
-0.0846

---

System: KURAMOCHI (Ovarian Carcinoma)
Assay: Bliss excess, mean over the matrix (fraction); higher = more synergy
Assignment: determine reported Bliss excess for the given compounds.
Response field accepts a number only; no unit should be typed.

Look up Bliss excess of CS(=O)(=O)CCNCc1ccc(-c2ccc3ncnc(Nc4ccc(OCc5cccc(F)c5)c(Cl)c4)c3c2)o1 [Lapatinib] + Cn1cnc2c(F)c(Nc3ccc(Br)cc3Cl)c(C(=O)NOCCO)cc21 [Selumetinib] (first compound max 10 µM, 7x7, partner max 10 µM) and report it.
-0.0116

Identify Bliss excess associated with the compound N#Cc1cnc(Nc2cc(NC[C@H]3CNCCO3)c(C(F)(F)F)cn2)cn1 [SRA737] + CCc1c2c(nc3ccc(O)cc13)-c1cc3c(c(=O)n1C2)COC(=O)[C@]3(O)CC [SN-38] (first compound max 10 µM, 7x7, partner max 0.3 µM)
-0.0093

Output Bliss excess of CN(C)CCCOc1ccc(-c2ccc3ncc4c(c3c2)n(C2CCOCC2)c(=O)n4C)cn1 [AZD0156] + C=CCn1c(=O)c2cnc(Nc3ccc(N4CCN(C)CC4)cc3)nc2n1-c1cccc(C(C)(C)O)n1 [AZD1775] (first compound max 1 µM, partner max 1 µM)
-0.031

Look up and report measured Bliss excess for this entry: CC1(C)CCC(CN2CCN(c3ccc(C(=O)NS(=O)(=O)c4ccc(NCC5CCOCC5)c([N+](=O)[O-])c4)c(Oc4cnc5[nH]ccc5c4)c3)CC2)=C(c2ccc(Cl)cc2)C1 [Venetoclax] + CS(=O)(=O)CCNCc1ccc(-c2ccc3ncnc(Nc4ccc(OCc5cccc(F)c5)c(Cl)c4)c3c2)o1 [Lapatinib] (first compound max 1 µM, 7x7, partner max 10 µM)
-0.0415

Give Bliss excess for the following compound: CN(C)CCCOc1ccc(-c2ccc3ncc4c(c3c2)n(C2CCOCC2)c(=O)n4C)cn1 [AZD0156] + C[C@@H]1COCCN1C2=NC(=NC(=C2)C3(CC3)[S@](=N)(=O)C)C4=C5C=CNC5=NC=C4 [AZD6738] (first compound max 1 µM, 7x7, partner max 10 µM)
-0.0119

Tell me measured Bliss excess for CS(=O)(=O)CCNCc1ccc(-c2ccc3ncnc(Nc4ccc(OCc5cccc(F)c5)c(Cl)c4)c3c2)o1 [Lapatinib] + NC1(c2ccc(-c3nc4ccn5c(=O)[nH]nc5c4cc3-c3ccccc3)cc2)CCC1 [MK-2206] (first compound max 10 µM, 7x7, partner max 10 µM) please.
0.0264

Supply recorded Bliss excess for Cc1c2c(nn1C)CSCc1cc(n(C)n1)CSc1cc(c3ccccc3c1)OCCCc1c(C(=O)O)n(C)c3c-2c(Cl)ccc13 [AZD5991] + C1CN(CCC1(C(=O)N[C@@H](CCO)C2=CC=C(C=C2)Cl)N)C3=NC=NC4=C3C=CN4 [Capivasertib] (first compound max 1 µM, 7x7, partner max 3 µM) here.
0.0205
